pIC50: −log10 of the molar value.
Record set of pIC50 for target or system Complement C1r subcomponent (Homo sapiens).

INSERT INTO results (structure_smiles, reported_measurement) VALUES
  ('O=c1oc(NCc2ccccc2I)nc2ccccc12', '< 4.20'),
  ('O=c1oc(Nc2ccccc2I)nc2cc([N+](=O)[O-])ccc12', 6.10),
  ('Nc1nc2ccccc2c(=O)o1', '< 4.20');

Provide pIC50 values for the following items, in order.
1. O=c1oc(Nc2ccccc2Cl)nc2cc(Cl)ccc12
2. Cc1cccc2nc(NC(C)C)oc(=O)c12
3. O=c1oc(Nc2ccccc2I)nc2cc(Cl)cc(Cl)c12
4. CSc1ccccc1Nc1nc2ccccc2c(=O)o1
5. O=c1oc(Nc2c(Cl)cccc2Cl)nc2cc(C(F)(F)F)ccc12

[6.10, "< 4.20", "< 4.20", "< 4.20", 5.82]

Provide pIC50 values for the following items, in order.
1. CC(C)c1ccc2c(=O)oc(Nc3ccccc3I)nc2c1
2. CN(C)c1ccc2c(=O)oc(Nc3ccccc3I)nc2c1
3. Cc1cccc(C)c1Nc1nc2ccccc2c(=O)o1
4. O=c1oc(Nc2ccccc2I)nc2cc(C3CCCCC3)ccc12
5. O=c1oc(Nc2ccccc2I)nc2cc(F)ccc12

< 4.20
< 4.20
< 4.20
< 4.20
5.77

---

Exercise: state measured IC50 for each of the compounds provided.
- ASSAYED TARGET: Complement C1r subcomponent (Homo sapiens, UniProt P00736)
- Sequence (P00736 18-463 limits assumed): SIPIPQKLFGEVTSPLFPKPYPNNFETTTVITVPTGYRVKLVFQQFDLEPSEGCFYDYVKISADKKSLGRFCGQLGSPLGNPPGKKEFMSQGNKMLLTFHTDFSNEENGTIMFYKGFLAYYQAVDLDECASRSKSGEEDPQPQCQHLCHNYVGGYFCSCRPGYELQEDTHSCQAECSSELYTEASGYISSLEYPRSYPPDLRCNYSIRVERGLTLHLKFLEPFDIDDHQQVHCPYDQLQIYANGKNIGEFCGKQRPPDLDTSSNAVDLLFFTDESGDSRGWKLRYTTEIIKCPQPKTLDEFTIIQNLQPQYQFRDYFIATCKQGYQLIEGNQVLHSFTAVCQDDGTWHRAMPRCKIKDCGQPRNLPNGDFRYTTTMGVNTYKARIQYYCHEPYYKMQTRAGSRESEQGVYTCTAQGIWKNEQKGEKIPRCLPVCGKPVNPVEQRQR
- Sequence (P00736 464-705 limits assumed): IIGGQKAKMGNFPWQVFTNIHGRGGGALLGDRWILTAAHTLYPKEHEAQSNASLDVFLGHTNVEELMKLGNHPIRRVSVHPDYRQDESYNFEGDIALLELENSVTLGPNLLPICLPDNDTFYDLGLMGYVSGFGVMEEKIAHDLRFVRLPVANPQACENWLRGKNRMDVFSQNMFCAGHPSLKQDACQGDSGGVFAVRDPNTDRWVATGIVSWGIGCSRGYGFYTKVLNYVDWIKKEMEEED
- PROTOCOL SUMMARY: 50% inhibition of human C1r serine protease after 60 mins using Cbz-Gly-Arg-S-Bzl as substrate
Give bare numbers, in µM.

INSERT INTO results (structure_smiles, assayed_target, unit_abbrev, reported_measurement) VALUES
  ('Cc1ccc2c(=O)oc(Nc3ccccc3Cl)nc2c1', 'Complement C1r subcomponent (Homo sapiens, UniProt P00736)', 'µM', 0.9),
  ('Cc1ccccc1Nc1nc2ccccc2c(=O)o1', 'Complement C1r subcomponent (Homo sapiens, UniProt P00736)', 'µM', 38),
  ('O=c1oc(Nc2c(Cl)cccc2Cl)nc2cc(C(F)(F)F)ccc12', 'Complement C1r subcomponent (Homo sapiens, UniProt P00736)', 'µM', 4.2);

Provide IC50 values for the following items, in order.
1. COc1cc2nc(Nc3ccccc3I)oc(=O)c2cc1OC
2. CN(c1nc2ccccc2c(=O)o1)c1ccccc1I
3. O=c1oc(Nc2ccccc2I)nc2cc3ccccc3cc12
4. O=c1oc(Nc2ccccc2I)nc2ccccc12
5. O=c1oc(Nc2ccccc2Cl)nc2cc(Cl)ccc12
6. O=c1oc(Nc2c(Cl)cccc2Cl)nc2cc(Cl)ccc12
7. O=c1oc(Nc2ccccc2I)nc2cc(Cl)ccc12

1. 47
2. 16.6
3. 16.6
4. 14.7
5. 0.8
6. 0.9
7. 0.9

Could you please provide reported IC50 for O=c1oc(Nc2ccccc2I)nc2cc([N+](=O)[O-])ccc12 ? Thanks!
7.8

---

Exercise: state measured pIC50 for each of the compounds provided.
- ASSAYED TARGET: Complement C1r subcomponent (Homo sapiens, UniProt P00736)
- PROTOCOL SUMMARY: 50% inhibition of human C1r serine protease after 60 mins using Cbz-Gly-Arg-S-Bzl as substrate
pIC50: −log10 of the molar value.

INSERT INTO measurements (structure_smiles, assayed_target, reported_measurement) VALUES
  ('O=c1oc(Nc2ccccc2OC(F)(F)F)nc2ccccc12', 'Complement C1r subcomponent (Homo sapiens, UniProt P00736)', '< 4.20'),
  ('O=c1oc(Nc2ccccc2I)nc2ccc(Cl)cc12', 'Complement C1r subcomponent (Homo sapiens, UniProt P00736)', '< 4.20');

Here is the next item to consider.
Could you please provide reported pIC50 for O=c1oc(Nc2ccccc2Cl)nc2cc(Cl)c(Cl)cc12 ? Thanks!
< 4.20
